System: NCI-H522 lung
assay-protocol: NCI-60 one-dose screen, 48 h
experimental-setup: 10 µM unless noted
This is part of a sample that, as a whole, favours compounds with a hit. Of some 83,000 tested, about 20% had one in any assay. The source made the active and inactive calls. How the source made its calls: active means growth percent below 10; inactive means the rest.
Outcome (select one): active, inactive

For orientation, consider the following solved cases.
# compound, category
records = [
    ("O=C1C=C(C(O)c2ccc(O)cc2)C(=O)c2ccccc21 (stereo not given)", "inactive"),
    ("COc1cc2ncnc(Nc3ccc(OCc4cccc(F)c4)c(Cl)c3)c2cc1NC(=O)C1CCCC1", "inactive"),
    ("Cc1cc(C)nc(NC(N)=NCCc2ccccc2)n1", "inactive"),
    ("CC1(C)CC[C@]2(C(=O)Nc3ccccn3)CC[C@]3(C)C(=CC[C@@H]4[C@@]5(C)C/C(=C/c6ccncc6)C(=O)C(C)(C)[C@@H]5CC[C@]43C)[C@@H]2C1", "inactive"),
    ("CC(=O)OC(C)COc1ccc(-c2ccccc2)cc1 (stereo not given)", "inactive"),
]

In: Kindly provide the recorded test outcome for the following compound: Cc1ccc2oc(=O)cc(-c3sc(N4CCCCC4)nc3-c3ccccc3)c2c1
Out: inactive

In: Kindly provide the recorded test outcome for the following compound: Cn1cc(-c2nc(-c3cn(C)c4ncccc34)cs2)c2cc(F)ccc21
Out: active
